log10 ED50 values by entry
Tested on: mouse
Assay: spontaneous motility test (hypomotility), mouse
Format: in vivo, mice
Conditions: po, 1 h, orally, 60 minutes before measuring, 50% reduction of mean motility, first 5 minutes, read-out: Hypomotility ED 50
Where a name gives a salt, the structure may show the parent alone.
Please note: log10 values; quantity ED50; unit mg/kg.

CCCCN1CCN(c2nc(N(C)Cc3ccccc3)nc(Cl)c2SC)CC1 [Example 27, hydrochloride] ... 2.20
C=CCNc1nc(Cl)c(SC)c(N2CCN(C)CC2)n1 [Example 21] ... 1.45
CCCCCNc1nc(Cl)c(SC)c(N2CCN(C)CC2)n1 [Example 24] ... 1.90
CCCNc1nc(Cl)c(SC)c(N2CCN(C)CC2)n1 [Example 30] ... 1.40
COc1ccc(Nc2nc(Cl)c(SC)c(N3CCN(C)CC3)n2)cc1 [Example 32] ... 1.78

Consider the compound CSc1c(Cl)nc(NCCO)nc1N1CCN(C)CC1 [Example 22] . State its measured log10 ED50.
2.00

Consider the compound CCCCNc1nc(Cl)c(SC)c(N2CCN(C)CC2)n1 [Example 31] . State its measured log10 ED50.
1.30

Consider the compound CCCCCCNc1nc(Cl)c(SC)c(N2CCN(C)CC2)n1 [Example 25] . State its measured log10 ED50.
1.85

Consider the compound CCCCN1CCN(c2nc(N3CCOCC3)nc(Cl)c2SC)CC1 [Example 29] . State its measured log10 ED50.
1.70

Consider the compound CSc1c(Cl)nc(N2CCOCC2)nc1N1CCN(C)CC1 [Example 28] . State its measured log10 ED50.
2.00

Consider the compound CSc1c(Cl)nc(NCc2ccccc2)nc1N1CCN(C)CC1 [Example 26] . State its measured log10 ED50.
1.30

Consider the compound CSc1c(Cl)nc(NC2CCCCC2)nc1N1CCN(C)CC1 [Example 23] . State its measured log10 ED50.
2.34

Origin of measurements: patent US4166852A
